# target_under_test: NAD-dependent protein deacetylase sirtuin-2 (Homo sapiens, UniProt Q8IXJ6)
# Sequence (Q8IXJ6 whole entry): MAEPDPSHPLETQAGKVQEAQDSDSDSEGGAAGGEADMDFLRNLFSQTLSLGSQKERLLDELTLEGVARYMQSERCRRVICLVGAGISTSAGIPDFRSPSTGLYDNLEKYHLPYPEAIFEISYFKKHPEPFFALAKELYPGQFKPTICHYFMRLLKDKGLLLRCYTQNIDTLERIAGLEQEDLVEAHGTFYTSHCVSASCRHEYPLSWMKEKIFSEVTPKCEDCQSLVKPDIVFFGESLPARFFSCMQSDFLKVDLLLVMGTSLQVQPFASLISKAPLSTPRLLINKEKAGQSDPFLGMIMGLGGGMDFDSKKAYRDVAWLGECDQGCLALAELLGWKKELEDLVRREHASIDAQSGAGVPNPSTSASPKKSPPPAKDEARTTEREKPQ
# IC50 values compiled below
Give your result in µM as a bare value.

In [3]: df
Out[3]:
                         structure_notation  metric  readout_units  observed_value
0  CC(C)c1ccc(-c2[nH][nH]c(=O)c2Cc2c(O)ccc3nc(Cl)ccc23)cc1    IC50             µM              68

Let's switch to this molecule now.
Query: Output measured IC50 for this item: "Cc1ccc(-c2[nH]oc(=O)c2Cc2c(O)ccc3cc(Br)ccc23)cc1"
Reply: 13

----------
# target_under_test: NAD-dependent protein deacetylase sirtuin-1 (Homo sapiens)
# Sequence (whole entry): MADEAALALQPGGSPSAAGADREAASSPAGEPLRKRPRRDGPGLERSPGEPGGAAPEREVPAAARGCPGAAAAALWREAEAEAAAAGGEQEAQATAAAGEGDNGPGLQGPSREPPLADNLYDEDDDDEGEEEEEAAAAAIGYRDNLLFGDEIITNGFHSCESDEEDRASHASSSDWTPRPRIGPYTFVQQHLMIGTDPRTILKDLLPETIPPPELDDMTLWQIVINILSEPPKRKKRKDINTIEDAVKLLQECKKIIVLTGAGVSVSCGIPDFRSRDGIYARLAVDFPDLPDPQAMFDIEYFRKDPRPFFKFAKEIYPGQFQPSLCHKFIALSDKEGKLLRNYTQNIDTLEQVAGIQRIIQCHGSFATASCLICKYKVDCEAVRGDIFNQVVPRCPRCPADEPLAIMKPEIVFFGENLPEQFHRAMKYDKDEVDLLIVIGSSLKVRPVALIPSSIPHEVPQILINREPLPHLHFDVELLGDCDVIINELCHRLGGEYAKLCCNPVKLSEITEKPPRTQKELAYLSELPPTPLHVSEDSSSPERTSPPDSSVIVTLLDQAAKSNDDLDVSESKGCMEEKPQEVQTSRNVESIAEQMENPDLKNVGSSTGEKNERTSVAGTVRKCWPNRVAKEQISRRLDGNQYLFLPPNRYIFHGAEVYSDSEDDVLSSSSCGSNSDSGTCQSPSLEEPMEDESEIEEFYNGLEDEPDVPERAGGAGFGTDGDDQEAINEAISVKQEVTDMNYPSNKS
# experimental_details: Inhibition of C-terminal His-6-tagged recombinant human SIRT1 expressed in Escherichia coli BL21(DE3) at 50 uM by luminescence assay relative to control
Please note: TRUE applies when inhibition is 50% or greater, and FALSE applies otherwise.

Query: Decide: inhibition of "Cc1ccc(-c2[nH][nH]c(=O)c2Cc2c(O)ccc3cc(C#N)ccc23)cc1" >= 50%?
Reply: FALSE

Query: Item "Cc1ccc(-c2[nH]oc(=O)c2Cc2c(O)ccc3cc(Br)ccc23)cc1" with inhibition of 50% or above?
Reply: FALSE

Query: Determine whether measured inhibition meets or exceeds 50% for "COc1ccc(-c2[nH][nH]c(=O)c2Cc2c(O)ccc3cc(Br)ccc23)cc1"
Reply: FALSE

Query: Textbook exercise: given the entry "COc1ccc2c(Cc3c(-c4ccc(C)cc4)[nH][nH]c3=O)c(O)ccc2c1" , state whether its inhibition is greater than or equal to 50%.
Reply: TRUE

Query: Dear colleague, could you confirm whether "CC(C)c1ccc(-c2[nH][nH]c(=O)c2Cc2c(O)ccc3nc(Cl)ccc23)cc1" has inhibition at or above 50%?
Reply: TRUE

Query: Record "O=c1[nH][nH]c(-c2cccc(Br)c2)c1Cc1c(O)ccc2ccccc12" ; criterion: inhibition no lower than 50%. Met?
Reply: FALSE

Query: Form field: inhibition at least 50%? Entry: "Cc1ccc(-c2[nH][nH]c(=O)c2Cc2c(O)ccc3cc(Br)ccc23)cc1"
Reply: TRUE

Query: Is reported inhibition greater than or equal to 50% here: "CCc1ccc2c(Cc3c(-c4ccc(C)cc4)[nH][nH]c3=O)c(O)ccc2c1"
Reply: FALSE

Query: Reported inhibition at or above 50%? "Cc1ccc(-c2[nH][nH]c(=O)c2Cc2c(O)ccc3ccc(Br)cc23)cc1"
Reply: FALSE
